melting point listing for selected molecules.

>  <Molecule>
CCc1cc(-c2[nH]c3ccccc3c2C)cc(CC)c1OC

>  <Value>
95.7 to 96.1 °C

$$$$
>  <Molecule>
Cc1noc(C)c1Cn1cc(N2C(=O)N(Cc3cc(O[Si](C)(C)C(C)(C)C)cc(O[Si](C)(C)C(C)(C)C)c3)C(C)(C)C2=O)cn1

>  <Value>
213 to 215 °C

$$$$
>  <Molecule>
CCCCCC(NC(C)C)=C1C(=O)ON=C1C

>  <Value>
99 to 101 °C

$$$$
>  <Molecule>
CCn1c(-c2c(C)cc(C)cc2C)nc(-c2ccncc2)c1-c1ccc(C)cc1

>  <Value>
137 to 140 °C

$$$$
>  <Molecule>
CCC(C)c1ccc(-n2c(-c3cc(C)c(OCCO)c(C)c3)nc3cc(F)ccc3c2=O)cc1 (stereo not given)

>  <Value>
53.9 to 54.4 °C

$$$$

Output melting point of `Oc1ccc(-c2nn(C3CCCC3)c3c(C(F)(F)F)cccc23)c(O)c1`
159 to 160 °C

Output melting point of `O=C1Nc2ccc(O)cc2Sc2ccccc21`
265 to 267 °C

Output melting point of `Cc1ccccc1-c1c(NC(=O)Nc2ccc(F)cc2F)cnc2cc3c(cc12)CCC3`
252 to 254 °C

Output melting point of CCN1c2ncc(CC(O)c3ccncc3)cc2C(=O)N(C)c2ccc(Cl)nc21 (stereo not given)
153 to 154 °C

Output melting point of `CCNS(=O)(=O)c1ccc(Cl)c(C)c1C#N`
85 to 90 °C

Output melting point of `Cc1cc(-n2cccn2)c2cccc(OCc3c(Cl)ccc(S(=O)(=O)N4CCC[C@H]4C(=O)NCC4CCN(CCCO)CC4)c3Cl)c2n1`
112 °C

Output melting point of `COc1cc(-c2nc(NCC(C)C)c3c(C)c(C#N)sc3n2)cc(OC)c1OC`
182 to 184 °C

----------
melting point listing for selected compounds.

>  <Compound>
COCCN(C)C(=O)c1cc2c(nc(C)n2C)c2c1CCC1(Cc3ccccc3C1)N2

>  <melting point>
160 to 161 °C

$$$$

Output melting point of C#CCOC(=O)C1=C(C)NC(N)=C(C(=O)OCC)C1c1cccc([N+](=O)[O-])c1 (stereo unspecified)
181 °C

Output melting point of `CCNc1nc(-c2ccccc2)c(-c2ccc(=O)n(C(C)C)n2)s1`
167 to 169 °C

Output melting point of `CCCOc1cc(-c2cc(C=CC(=O)O)ccc2O)cc2c1C(C)(C)CCC2(C)C`
114 to 116 °C

Output melting point of `O=C(CCc1ccc2cccc(O)c2n1)NO`
165 to 167 °C

Output melting point of `COc1ccc(-n2cccc2)c(N)c1`
42 to 43 °C

Output melting point of `O=C(Nc1ccc(N2CCN(C(=O)Nc3ccc(OCCO)cc3C(F)(F)F)CC2)cc1)Nc1ccccc1F`
219 to 220 °C

Output melting point of `COCc1cc(Cl)ncn1`
34 to 36 °C

Output melting point of CN1CCC2(CC1)SC(c1ccc(Cl)cc1)c1ccccc12 (stereo unspecified)
121 to 123 °C

Output melting point of `C#CCn1c(Sc2ccccc2)c(CC)c(=O)[nH]c1=O`
132 °C

Output melting point of NCCC1CCSc2[nH]c3ccccc3c21 (stereo unspecified)
136 to 138 °C

Output melting point of `CCOC(=O)c1cc2oc3c(n2n1)CCCC3`
55 to 57 °C

Output melting point of CCCc1nc2c(N)nc3ccccc3c2n1CCCC(C)N(OC)C(C)=O (stereo unspecified)
140 to 142 °C

Output melting point of CNC(=NS(=O)(=O)c1ccc(C)cc1)Nc1cc(C(C)c2ccc(-c3ccccc3)c(F)c2)on1 (stereo unspecified)
125 to 127 °C

Output melting point of CCOC(=O)/C(=N\OC1CCNC1=O)c1csc(NC(c2ccccc2)(c2ccccc2)c2ccccc2)n1 (stereo unspecified)
209 to 210 °C

Output melting point of `CC(C)Nc1ncnc2sc([N+](=O)[O-])cc12`
200 °C

----------
melting point listing for selected compounds.

Worked examples, 4 compounds total:
>  <Compound>
CC(C)[C@H](CCC(=O)O)NC(=O)OC(C)(C)C

>  <melting point>
107 to 109 °C

$$$$
>  <Compound>
CCOC(=O)c1ncn2c1Cn1ccnc1-c1sccc1-2

>  <melting point>
203 to 204 °C

$$$$
>  <Compound>
CC(C)(C)OC(=O)C(C#N)=C(NCCCN1CCCCCC1=O)Nc1cc(C(F)(F)F)cc(C(F)(F)F)c1

>  <melting point>
167 to 168 °C

$$$$
>  <Compound>
C=CCn1c(NCc2cccnc2)nc(N2CCc3ccccc3CC2)c(C#N)c1=O

>  <melting point>
> 200 °C

$$$$

Output melting point of `COC(=O)c1nc(Cl)cc(Cl)c1N`
127 to 128 °C

Output melting point of `CC(=O)OCc1nc(C(C)C)c(Sc2cc(Cl)cc(Cl)c2)n1C`
92 to 93 °C

Output melting point of CCn1nc(C)c2c1NC(=O)CC2C (stereo unspecified)
141 to 142 °C

Output melting point of CC(O)(CCO)c1ccc(Oc2ccccc2)cc1 (stereo unspecified)
74 to 75 °C

Output melting point of OC1CCCCC1n1cnc2cc(Cl)c(Cl)cc21 (stereo unspecified)
236 to 238 °C

Output melting point of `C(=C\C1CCCCC1)/c1nc2ccccc2n1-c1ccccn1`
105 to 106 °C

Output melting point of `CCNc1nc(Cc2ccc(OC)c(OC)c2)nc2sc(C#N)c(C)c12`
125 to 126 °C

----------
Readout kind: melting point

Worked examples, 4 compounds total:
>  <Compound>
C#Cc1cn(C2CC(O)C(CO)O2)c(=O)n(C(=O)c2ccccc2)c1=O (stereo not given)

>  <melting point>
156 to 157 °C

$$$$
>  <Compound>
CCOC(=O)CCn1c(CC(=O)OCC)nc2c(N3CCCCC3)cccc21

>  <melting point>
82 to 85 °C

$$$$
>  <Compound>
CCOC(=O)CCc1cn(-c2ccc([N+](=O)[O-])cn2)nc1C(C)C

>  <melting point>
90 to 91 °C

$$$$
>  <Compound>
Cc1nccn1-c1ccc(O)cc1

>  <melting point>
205 to 208 °C

$$$$

Switching to the query record.
Output melting point of `Nc1n[nH]c2nc(C3CC3)cc(-c3ccc(Cl)c(Cl)c3)c12`
256 to 258 °C

----------
Readout kind: melting point

Output melting point of `COc1cc2c(cc1OCc1ccccc1)CCN(C(=O)CC13CC4CC(CC(C4)C1)C3)C2`
133 to 135 °C

Output melting point of `CS(=O)(=O)Nc1cc(N)ccc1OC1CCCCC1`
152 to 154 °C

Output melting point of `CCc1cc2c(ccc(=O)n2Cc2ccc(-c3ccccc3C(=O)O)cc2)c(CC)n1`
238 to 240 °C

Output melting point of `CN1C(=O)N(C[C@H](C(=O)NOCc2ccccc2)[C@@H](CC2CCCC2)C(=O)N2CCCCC2)C(=O)C1(C)C`
138 to 140 °C

Output melting point of `FC(F)(F)C1(c2ccccc2)c2ccccc2Oc2ccccc21`
89 to 90 °C

Output melting point of `CCOC(=O)c1cn(C)c2cc(-c3ccccc3)sc2c1=O`
189 to 191 °C

Output melting point of `OCc1ccccc1CSc1ccccc1`
64 to 65 °C

Output melting point of O=C1N(Cc2ccc(C(F)(F)F)o2)c2ccccc2C12COc1cc3c(cc12)OCC3 (stereo not given)
174 to 177 °C

----------
melting point listing for selected compounds.

>  <Compound>
CNC(=O)Oc1cccc(NC(=O)CC(C)(OC)OC)c1

>  <Value>
139 °C

$$$$
>  <Compound>
CC(C)(C)OC(=O)NC12CCC1CN(c1c(F)cc3c(=O)c(C(=O)O)cn(C4CC4)c3c1Cl)C2 (stereo unspecified)

>  <Value>
200 to 202 °C

$$$$
>  <Compound>
[O-][N+]1=C(c2ccccc2Cl)c2cc(Cl)ccc2C=CC1

>  <Value>
196 to 197 °C

$$$$

Switching to the query record.
Output melting point of CCOCCNC(=O)c1ccc(-c2ccc(C(CC3CCOCC3)c3ccc(S(=O)(=O)C4CC4)cc3)[nH]2)nc1 (stereo unspecified)
87 to 90 °C

----------
melting point listing for selected compounds.

Output melting point of Cc1cccc(C)c1NCCN(C)CC(O)COc1cccc2[nH]ncc12 (stereo unspecified)
120 to 121 °C

Output melting point of `COc1cc2nc(-c3n[nH]cc3NC(=O)N(C)C)[nH]c2cc1Cl`
> 300 °C

Output melting point of `COc1ccc(-c2cc(COS(C)(=O)=O)c(=O)n(Cc3ccc(F)c(F)c3)n2)cc1F`
146 to 147 °C

Output melting point of `CCCc1nc2c(N)nc3ccccc3c2n1CCCCCC(=O)N1CCOCC1`
149 to 151 °C

Output melting point of `CS(=O)(=O)Nc1cc2c(cc1Oc1ccc(F)cc1F)C(=O)CCO2`
164 to 165 °C

Output melting point of `COc1ccc(-n2nc(C(C)(C)C)cc2NC(=O)c2cccc3cc(Oc4cc(NCCN(C)C)ncn4)ccc23)cc1`
116 to 117 °C

Output melting point of `NC(=O)c1cnc2n(c1=O)CCC2`
293 °C

Output melting point of CC(=O)OCNC(=O)c1cc(C)c(C(c2cc(F)ccc2F)S(=O)(=O)c2ccc(F)cc2)cn1 (stereo unspecified)
111 to 113 °C
